Attribution: ChEMBL document CHEMBL4219273

- target under test: Acetyl-CoA carboxylase 1 (Homo sapiens)
- test summary: Inhibition of recombinant human ACC1 assessed as reduction in conversion of acetyl-CoA to malonyl-CoA incubated for 1 to 3 hrs with substrate by MALDI-TOF-MS analysis
measurement type: IC50 (nM)
One number for each entry, in nM.

Below, 5 compounds whose answers are already recorded.
| query smiles | unit | IC50 |
| --- | --- | --- |
| CC(=O)N[C@@H](C)/C=C/c1ccc(Oc2ccc3nc(C(C)C)sc3c2F)nc1 | nM | 35 |
| CC(=O)N[C@@H](C)/C=C/c1ccc(Oc2ccc3sc(C(C)C)nc3c2Cl)nc1 | nM | 858 |
| CC(=O)N[C@@H](C)/C=C/c1cnc(Oc2ccc(OCC3CC3)cc2)s1 | nM | 1940 |
| CC(=O)N[C@@H](C)/C=C/c1ccc(Oc2ccc(OCC3CC3)cc2Cl)nc1 | nM | 964 |
| CC(=O)N[C@@H](C)/C=C/c1ccc(Oc2ccc3nc(C(C)(C)O)sc3c2Cl)nc1 | nM | 3150 |

Could you tell me IC50 for each of these compounds? They are listed below.
1. CC(=O)N[C@@H](C)/C=C/c1cnc(Oc2ccc(OCC3CC3)cc2Cl)n1C
2. CC(=O)N[C@@H](C)/C=C/c1ccc(Oc2ccc3nc(C)sc3c2Cl)nc1
3. CC(=O)N[C@@H](C)/C=C/c1cnc(Oc2ccc(OC(C)C)cc2)s1

Resp:
37200
12200
53400

Would you mind listing IC50 for each of the following compounds?
1. CC(=O)N[C@@H](C)/C=C/c1cnc(Oc2ccc(OCC3CC3)cc2Cl)cn1
2. CC(=O)N[C@@H](C)/C=C/c1ccc(Oc2ccc3nc(C(C)C)sc3c2Cl)nc1
3. CC(=O)N[C@@H](C)/C=C/c1cnc(Oc2ccc(OCC3CC3)cc2Cl)s1

Resp:
750
303
1270
